System: Acinetobacter baumannii
Experiment summary: Antibacterial activity against wild type Acinetobacter baumannii ATCC BAA-747 by CLSI M100-S17 protocol based method
Type: functional
Recorded MIC, one value per entry.
Measurement type: MIC (µg/mL)

compound=Cn1c(CNC2(C)CCC2)cc2cc3c(cc21)CCCc1c-3[nH]c(=O)c(C(=O)O)c1O unit_label=µg/mL result_operator== experimental_value=0.5
compound=CN(C)CCNCc1cc2cc3c(cc2n1C)OCCc1c-3[nH]c(=O)c(C(=O)O)c1O unit_label=µg/mL result_operator=> experimental_value=62.5
compound=CN(C)CCNCc1cc2cc3c(cc2n1C)CCCc1c-3[nH]c(=O)c(C(=O)O)c1O unit_label=µg/mL result_operator== experimental_value=15.6
compound=CC(C)NCc1cc2cc3c(cc2n1C)NCCc1c-3[nH]c(=O)c(C(=O)O)c1O unit_label=µg/mL result_operator=> experimental_value=25
compound=COCCNCc1cc2cc3c(cc2n1C)CCCc1c-3[nH]c(=O)c(C(=O)O)c1O unit_label=µg/mL result_operator== experimental_value=1.6
compound=CC(C)NCc1cc2cc3c(cc2n1C)CCCc1c-3[nH]c(=O)c(C(=O)O)c1O unit_label=µg/mL result_operator== experimental_value=0.78
compound=CCc1c(-c2ccc3c(c2)cc(CNC(C)(C)C)n3C)[nH]c(=O)c(C(=O)O)c1O unit_label=µg/mL result_operator== experimental_value=0.78
compound=CCNCc1cc2cc3c(cc2n1C)OCCc1c-3[nH]c(=O)c(C(=O)O)c1O unit_label=µg/mL result_operator== experimental_value=12.5
compound="COC1CCN(Cc2cc3cc4c(cc3n2C)OCCc2c-4[nH]c(=O)c(C(=O)O)c2O)C1 (stereo unspecified)" unit_label=µg/mL result_operator== experimental_value=3.9
compound=CCc1c(-c2ccc3c(c2)cc(CNC(C)C)n3C)[nH]c(=O)c(C(=O)O)c1O unit_label=µg/mL result_operator== experimental_value=0.78
compound=CC(C)c1c(-c2ccc3c(c2)cc(CN(C)C)n3C)[nH]c(=O)c(C(=O)O)c1O unit_label=µg/mL result_operator== experimental_value=15.6
compound=CCc1c(-c2ccc3c(c2)cc(CNC)n3C)[nH]c(=O)c(C(=O)O)c1O unit_label=µg/mL result_operator== experimental_value=0.78
compound=CCc1c(-c2ccc3c(c2)cc(CN2CCCC2)n3C)[nH]c(=O)c(C(=O)O)c1O unit_label=µg/mL result_operator== experimental_value=0.78
compound=CNCc1cc2cc3c(cc2n1C)NCCc1c-3[nH]c(=O)c(C(=O)O)c1O unit_label=µg/mL result_operator=> experimental_value=25
compound=CCc1c(-c2ccc(N(C)C)cc2)[nH]c(=O)c(C(=O)O)c1O unit_label=µg/mL result_operator== experimental_value=1.6
compound=CC(C)NCc1cc2cc3c(cc2n1C)OCCc1c-3[nH]c(=O)c(C(=O)O)c1O unit_label=µg/mL result_operator== experimental_value=3.9
compound=CC(C)NCc1cc2cc3c(cc2n1C)SCCc1c-3[nH]c(=O)c(C(=O)O)c1O unit_label=µg/mL result_operator== experimental_value=2
compound=CN(C)Cc1cc2cc3c(cc2n1C)OCCc1c-3[nH]c(=O)c(C(=O)O)c1O unit_label=µg/mL result_operator== experimental_value=2
compound=Cn1c(CNC2(C)CCC2)cc2cc3c(cc21)OCCc1c-3[nH]c(=O)c(C(=O)O)c1O unit_label=µg/mL result_operator== experimental_value=0.5
compound=CCc1c(-c2ccc3c(c2)cc(CN2CCC2)n3C)[nH]c(=O)c(C(=O)O)c1O unit_label=µg/mL result_operator== experimental_value=0.39
compound=CCc1c(-c2ccc3c(c2)cc(CN(C)C)n3C)[nH]c(=O)c(C(=O)O)c1O unit_label=µg/mL result_operator== experimental_value=0.78
compound=CCNCc1cc2cc(-c3[nH]c(=O)c(C(=O)O)c(O)c3CC)ccc2n1C unit_label=µg/mL result_operator== experimental_value=0.78
compound=CNCc1cc2cc3c(cc2n1C)SCCc1c-3[nH]c(=O)c(C(=O)O)c1O unit_label=µg/mL result_operator== experimental_value=3.9
compound=Cn1c(CN2CCCC2)cc2cc3c(cc21)SCCc1c-3[nH]c(=O)c(C(=O)O)c1O unit_label=µg/mL result_operator== experimental_value=2
compound=CNCc1cc2cc3c(cc2n1C)OCCc1c-3[nH]c(=O)c(C(=O)O)c1O unit_label=µg/mL result_operator== experimental_value=12.5
compound=Cn1c(CN2CCCC2)cc2cc3c(cc21)OCCc1c-3[nH]c(=O)c(C(=O)O)c1O unit_label=µg/mL result_operator== experimental_value=3.9
compound=CC(C)NCc1cc2cc3c(cc2n1C)COCc1c-3[nH]c(=O)c(C(=O)O)c1O unit_label=µg/mL result_operator=> experimental_value=50
compound=Cn1c(CN2CCCC2)cc2cc3c(cc21)COCc1c-3[nH]c(=O)c(C(=O)O)c1O unit_label=µg/mL result_operator== experimental_value=12.5
compound=CCc1c(-c2ccc3c(ccn3C)c2)[nH]c(=O)c(C(=O)O)c1O unit_label=µg/mL result_operator== experimental_value=0.78
compound=CCNCc1cc2cc3c(cc2n1C)CCCc1c-3[nH]c(=O)c(C(=O)O)c1O unit_label=µg/mL result_operator== experimental_value=0.78
compound=CN(C)Cc1cc2cc3c(cc2n1C)SCCc1c-3[nH]c(=O)c(C(=O)O)c1O unit_label=µg/mL result_operator== experimental_value=2
compound=CN(C)Cc1cc2cc(-c3[nH]c(=O)c(C(=O)O)c(O)c3C3CC3)ccc2n1C unit_label=µg/mL result_operator=> experimental_value=62.5
compound=CNCc1cc2cc3c(cc2n1C)CCCc1c-3[nH]c(=O)c(C(=O)O)c1O unit_label=µg/mL result_operator== experimental_value=1.6
compound=CN(C)Cc1cc2cc3c(cc2n1C)COCc1c-3[nH]c(=O)c(C(=O)O)c1O unit_label=µg/mL result_operator== experimental_value=25
compound=CCNCc1cc2cc3c(cc2n1C)NCCc1c-3[nH]c(=O)c(C(=O)O)c1O unit_label=µg/mL result_operator=> experimental_value=25
compound=Cc1c(-c2ccc3c(c2)cc(CN(C)C)n3C)[nH]c(=O)c(C(=O)O)c1O unit_label=µg/mL result_operator== experimental_value=6.3
compound=COCCNCc1cc2cc3c(cc2n1C)OCCc1c-3[nH]c(=O)c(C(=O)O)c1O unit_label=µg/mL result_operator== experimental_value=7.8
compound=CCNCc1cc2cc3c(cc2n1C)SCCc1c-3[nH]c(=O)c(C(=O)O)c1O unit_label=µg/mL result_operator== experimental_value=3.9
compound=Cn1c(CN2CCCC2)cc2cc3c(cc21)CCCc1c-3[nH]c(=O)c(C(=O)O)c1O unit_label=µg/mL result_operator== experimental_value=0.78
compound="COC1CCN(Cc2cc3cc4c(cc3n2C)CCCc2c-4[nH]c(=O)c(C(=O)O)c2O)C1 (stereo unspecified)" unit_label=µg/mL result_operator== experimental_value=3.1
compound=CN(C)Cc1cc2cc3c(cc2n1C)CCCc1c-3[nH]c(=O)c(C(=O)O)c1O unit_label=µg/mL result_operator== experimental_value=1.6

----------
System: Acinetobacter baumannii
Experiment summary: Antibacterial activity against carbapenem resistant Acinetobacter baumannii by broth microdilution method
Format: functional
Measurement context: Acinetobacter baumannii
Measurement type: MIC90 (µg/mL)

smiles_notation=Cn1c(CNC2(C)CCC2)cc2cc3c(cc21)OCCc1c-3[nH]c(=O)c(C(=O)O)c1O assay_system="Acinetobacter baumannii" experimental_value=8
smiles_notation=Cn1c(CN2CCCC2)cc2cc3c(cc21)CCCc1c-3[nH]c(=O)c(C(=O)O)c1O assay_system="Acinetobacter baumannii" experimental_value=16
smiles_notation=CCNCc1cc2cc(-c3[nH]c(=O)c(C(=O)O)c(O)c3CC)ccc2n1C assay_system="Acinetobacter baumannii" experimental_value=16
smiles_notation=CCNCc1cc2cc3c(cc2n1C)CCCc1c-3[nH]c(=O)c(C(=O)O)c1O assay_system="Acinetobacter baumannii" experimental_value=16
smiles_notation=CN(C)Cc1cc2cc3c(cc2n1C)OCCc1c-3[nH]c(=O)c(C(=O)O)c1O assay_system="Acinetobacter baumannii" experimental_value=16
smiles_notation=CC(C)NCc1cc2cc3c(cc2n1C)CCCc1c-3[nH]c(=O)c(C(=O)O)c1O assay_system="Acinetobacter baumannii" experimental_value=16
smiles_notation=C[C@H]1COc2c(N3CCN(C)CC3)c(F)cc3c(=O)c(C(=O)O)cn1c23.C[C@H]1COc2c(N3CCN(C)CC3)c(F)cc3c(=O)c(C(=O)O)cn1c23.O assay_system="Acinetobacter baumannii" experimental_value=16
smiles_notation=Cn1c(CN2CCCC2)cc2cc3c(cc21)OCCc1c-3[nH]c(=O)c(C(=O)O)c1O assay_system="Acinetobacter baumannii" experimental_value=8
